Assay: Ability to block the release of TNF-alpha in human monocytes
Format: functional, cell-based
pIC50: −log10 of the molar value.
Readout kind: pIC50

COc1ccc(-c2ccc(C(N)=O)cc2)cc1OC1CCCC1; 7.59
COc1ccc(-c2ccc(C(N)=O)nc2)cc1OCCc1ccccc1; 6.74
COc1ccc(-c2ccc(C(N)=O)c(Cl)c2)cc1OC1CCCC1; 7.09
COc1ccc(-c2ccc(C(=O)O)cc2)cc1O[C@H]1CC2CCC1C2 (some centres not stated); 6.85
COc1ccc(-c2ccc(C(N)=O)c(C)c2)cc1OC1CCCC1; 6.72
COc1ccc(-c2ccc(C(N)=O)nc2)cc1OC1CCCC1; 7.43
COc1ccc(-c2ccc(C(N)=O)cc2)cc1O[C@H]1CC2CCC1C2 (some centres not stated); 7.62
COc1ccc(-c2ccc(C(N)=O)nc2)cc1OC1Cc2ccccc2C1; 6.92

A. COc1ccc(-c2ccc(C(N)=O)nc2)cc1OCCCc1ccccc1
B. COc1ccc([C@]2(C#N)CC[C@@H](C(=O)O)CC2)cc1OC1CCCC1 [CILOMILAST]
Prompt line: Of A and B , which carries the smaller reported pIC50 figure? To answer, give the label that identifies your chosen option.
Response line: A

P. COc1ccc(-c2ccc(C(N)=O)cc2)cc1OC1Cc2ccccc2C1
Q. COc1ccc(-c2ccc(C(N)=O)cn2)cc1OC1CCCC1
Prompt line: Which item exceeds the other in pIC50, P or Q ? To answer, give the label that identifies your chosen option.
Response line: Q

1. COc1ccc(-c2ncc(C(N)=O)cc2Cl)cc1OC1CCCC1
2. COc1ccc(-c2ccc(C(N)=O)nc2)cc1O[C@H]1CC2CCC1C2 (some centres not stated)
Prompt line: Of 1 and 2 , which carries the smaller reported pIC50 figure? To answer, give the label that identifies your chosen option.
Response line: 1
(1: 6.44, 2: 8.05)

###

Molecular target: Phosphodiesterase 4 (Homo sapiens, UniProt P27815+Q08499+Q07343+Q08493)
Experiment: Tested for its ability to inhibit the hydrolysis of cAMP by human monocyte cytosol phosphodiesterase
Format: protein assay
Readout kind: IC50 (nM)

As a guide, the following entries are already answered.
COc1ccc(-c2ccc(C(N)=O)cc2)cc1OC1CCCC1; 5910
COc1ccc(-c2ccc(C(N)=O)nc2)cc1O[C@H]1CC2CCC1C2 (some centres undefined); 1070

P. COc1ccc(-c2ccc(C(N)=O)cc2)cc1O[C@H]1CC2CCC1C2 (some centres undefined)
Q. COc1ccc(-c2ccc(C(N)=O)nc2)cc1OC1CCCC1
Prompt line: Of P and Q , which carries the smaller reported IC50 figure? To answer, give the label that identifies your chosen option.
Response line: Q

###

Tested on: U-937
Assay: Ability to elevate intracellular levels of cAMP in human U937 cells
Assay type: functional, cell-based
Readout kind: IC50 (nM)

COc1ccc(-c2ccc(C(N)=O)nc2)cc1O[C@H]1CC2CCC1C2 (stereo partly specified); 49

a. COc1ccc(-c2ccc(C(N)=O)cc2)cc1O[C@H]1CC2CCC1C2 (stereo partly specified)
b. COc1ccc(-c2ccc(C(N)=O)cc2)cc1OC1CCCC1
c. COc1ccc(-c2ccc(C(N)=O)nc2)cc1OC1CCCC1
d. COc1ccc(C2CNC(=O)C2)cc1OC1CCCC1 (stereo unspecified) [ROLIPRAM]
e. COc1ccc([C@]2(C#N)CC[C@@H](C(=O)O)CC2)cc1OC1CCCC1 [CILOMILAST]
Prompt line: Order each entry by recorded IC50, climbing from the minimum. As an answer, provide the labels arranged in the order called for.
Response line: a, c, b, d, e

###

Assay: Ability to block the release of TNF-alpha in human monocytes
Assay type: functional, cell-based
pIC50: −log10 of the molar value.
Readout kind: pIC50

COc1ccc(-c2ccc(C(N)=O)cc2Cl)cc1OC1CCCC1; 6.59

P. COc1ccc(C2CNC(=O)C2)cc1OC1CCCC1 (stereo not drawn)
Q. COc1ccc(-c2ccc(C(N)=O)c(C(F)(F)F)c2)cc1OC1CCCC1
Prompt line: Which item exceeds the other in pIC50, P or Q ? To answer, give the label that identifies your chosen option.
Response line: P
(P: 6.51, Q: 5.93)
